Sourced from PubChem BioAssay (NCI)

system: MCF7 breast; assay: NCI tumour cell line growth inhibition, 48 h
Measurement Label: GI50

Molecule	Value
CSc1ccc(C2=NN(C(=O)c3ccc(N)cc3)C(c3ccc(F)cc3)C2)cc1 (centres undefined)	3.42 µM
Cc1cc2nc3c4ccccc4n(CCN(C)C)c3nc2cc1C	1.41 µM
Cc1sc(/N=C2/NC(=O)CS2)nc1-c1nc(/N=C2/NC(=O)CS2)sc1C	19.7 µM
N#CC[C@H](C1CCCC1)n1cc(-c2ncnc3[nH]ccc23)cn1	17.6 µM
C=C(C)[C@@H]1CC[C@]2(C)[C@H](C=CC3=C4C[C@@](C)(CO)CC[C@]4(C)CC[C@]32C)[C@@]1(C)CCCN	1.6 µM
CON	> 100 µM
CC(=O)N[C@@H](Cc1ccc(OP(=O)(O)O)cc1)C(=O)N[C@H]1CCC(=O)N2CCC[C@@H](C(=O)NCc3ccc(O)cc3)N2C1=O	> 25 µM
CCN(CC)c1ccc2nc3c4ccccc4c(=NC(=O)c4ccccc4-c4c5ccc(N(CC)CC)cc5[o+]c5cc(N(CC)CC)ccc45)cc-3oc2c1	1.59 µM
CC(C)CNc1nc(N=[N+]=[N-])nc(NCC(C)C)n1	> 10 µM

----------
test system: HCT-15 colon; assay: NCI tumour cell line growth inhibition, 48 h

Given Smiles	TGI
CC[O-].CC[O-].O=C([CH-]C(=O)c1ccccc1)c1ccccc1.O=C([CH-]C(=O)c1ccccc1)c1ccccc1.[Ti+4]	> 100 µM
Cc1ccc(S(=O)(=O)N2CCN3CCN(CCN(C)CCN4CCN(CC4)CCN(S(=O)(=O)c4ccc(C)cc4)CCN(S(=O)(=O)c4ccc(C)cc4)CCN(S(=O)(=O)c4ccc(C)cc4)CCN(S(=O)(=O)c4ccc(C)cc4)CCN4CCN(CCN(C)CCN5CCN(CC5)CCN(S(=O)(=O)c5ccc(C)cc5)CCN(S(=O)(=O)c5ccc(C)cc5)CCN(S(=O)(=O)c5ccc(C)cc5)CC2)CC4)CC3)cc1	2.82 µM
CN(NC(=O)c1cccs1)C1=NCCN1	> 100 µM
COC(=O)c1cc(C)n(NC(=O)OC(C)(C)C)c1C	> 100 µM
Cc1cc2nc3c4ccccc4n(CCN(C)C)c3nc2cc1C	10.4 µM
Cc1c(N2C(=O)/C(=C\c3ccc(N(C)C)cc3)N=C2c2ccccc2)c(=O)n(-c2ccccc2)n1C	> 100 µM
C/C(=N\Nc1cccc(Cl)n1)c1ccccn1	> 100 µM
CNC(=O)OCCN1c2ccccc2Sc2ccccc21	> 100 µM
CC(C)(C)c1cc(C(C)(C)C)c2sc(=S)oc2c1O	17.8 µM
Cc1nc(N)sc1C(=O)/C=C/c1ccc([N+](=O)[O-])cc1	> 100 µM

----------
Catalogue of molecules with associated TGI
test system: SNB-75 CNS; assay: NCI tumour cell line growth inhibition, 48 h
Measurement Label: TGI (µM)

Molecule	Test System	Scale Unit	Modifier	Value
O=C1c2ccccc2C(=O)c2sc(Nc3ccc(Cl)c(Cl)c3)nc21	SNB-75 CNS	µM	=	26.7
CC1=NN(c2ccccc2)C(=O)C1=C1SCCCS1	SNB-75 CNS	µM	>	100
CCCCCc1c(C)[nH]c(/C=c2\[nH]/c(=C3/C=c4ccccc4=N3)cc2OC)c1C	SNB-75 CNS	µM	=	0.583
COc1cc(NCc2ccc3n2-c2ccccc2OC3)cc(OC)c1OC	SNB-75 CNS	µM	=	62.4
CC(=O)O/C=C\OC1CCCC1	SNB-75 CNS	µM	>	100
CC(C)[O-].CC(C)[O-].[O-]c1cccc2cccnc12.[O-]c1cccc2cccnc12.[Ti+4]	SNB-75 CNS	µM	>	100
O=C(NC/C(Cl)=C/Cl)Nc1cccc2c1CCCC2	SNB-75 CNS	µM	>	100
Cn1c2c(cc(-c3ccccc3)c1=O)COc1ccccc1-2	SNB-75 CNS	µM	>	100
C[C@]12CCCC(=O)C1C[C@H](C(=O)O)CC2 (some centres not stated)	SNB-75 CNS	µM	>	100
CCNCCNc1cc(-c2cccc(C(F)(F)F)c2)c(C#N)c2nc3ccccc3n12	SNB-75 CNS	µM	=	2.92
COc1ccc(C2S/C(=C\c3cccc(O)c3)C(=O)N2NC(=O)Cc2ccccc2)cc1 (configuration not stated)	SNB-75 CNS	µM	>	100
Oc1[nH]c2ccccc2c1N=NC(=S)N1CCCC1	SNB-75 CNS	µM	=	14.1
CN(C)CCC(C(=O)C(C)(C)C)c1ccccn1 (configuration not stated)	SNB-75 CNS	µM	>	100
CCCOCN1COCN=C1NC#N	SNB-75 CNS	µM	>	100
NC(=O)NC(=O)C1CCCCC1C(=O)O (configuration not stated)	SNB-75 CNS	µM	>	100
C[C@@H](Oc1cc(-c2cnn(C3CC4(CCCNC4)C3)c2)cnc1N)c1c(Cl)ccc(F)c1Cl (some centres not stated)	SNB-75 CNS	µM	=	3.96
O=C(NNC(=O)c1ccccc1Cl)c1ccccc1O	SNB-75 CNS	µM	>	100
CSc1ccc(C2=NN(C(=O)c3ccc(N)cc3)C(c3ccc(F)cc3)C2)cc1 (configuration not stated)	SNB-75 CNS	µM	=	28.1
Cc1cc2c(C(C)C)c(O)c(O)c(C=O)c2c(O)c1-c1c(C)cc2c(C(C)C)c(O)c(O)c(C=O)c2c1O (tested in a mixture with another compound)	SNB-75 CNS	µM	=	5.03
O=C(O)Cc1ccc2c(c1O)C(=O)c1c(ccc(CC(=O)O)c1O)C2=O	SNB-75 CNS	µM	>	100
CC(C)(C)c1cc(C(C)(C)C)c2sc(=S)oc2c1O	SNB-75 CNS	µM	=	18.5
CC1(C)O[C@@H](CP(c2ccccc2)c2ccccc2)[C@H](CP(c2ccccc2)c2ccccc2)O1	SNB-75 CNS	µM	=	27.9

----------
system: OVCAR-5 ovarian; assay: NCI tumour cell line growth inhibition, 48 h
Catalogue of compounds with associated TGI

Compound	TGI
O=C(NO)c1cnc(N2CCN(S(=O)(=O)c3ccc4ccccc4c3)CC2)nc1	10.6 µM
CS[C@@]1(C(=O)Nc2ccc3[nH]nc(-c4ccc(OC(C)C)nc4)c3c2)CCN(CC(=O)N2CC=C(c3ccc(-c4ncn(C)n4)cc3)CC2)C1	> 100 µM
CC1(C)O[C@@H](CP(c2ccccc2)c2ccccc2)[C@H](CP(c2ccccc2)c2ccccc2)O1	54.7 µM
Cc1cc2c(cc1C)[n+]([O-])c(-c1c(Cl)cccc1Cl)c(N)[n+]2[O-]	> 100 µM
Cc1cc2c(=O)[nH]nc(N)c2c(N)n1	> 100 µM
Cc1c(N2C(=O)/C(=C\c3ccc(N(C)C)cc3)N=C2c2ccccc2)c(=O)n(-c2ccccc2)n1C	> 100 µM
N#Cc1c(Oc2ccc(F)c(NC(=O)Cc3cccc(C(F)(F)F)c3)c2)ccc2nc(NC(=O)C3CC3)sc12	> 100 µM
CCOC(=O)CCc1c(C)[nH]c2c(C)c3c([nH]c4ccc(Cl)cc43)c(C)c2c1=O	19.1 µM
Cc1cc2c(C(C)C)c(O)c(O)c(C=O)c2c(O)c1-c1c(C)cc2c(C(C)C)c(O)c(O)c(C=O)c2c1O (tested in a mixture with another compound)	5.26 µM
Nc1cccc2nsnc12	> 100 µM
Nc1cnc2c(c1)c(=O)nc1n2CCS1	> 100 µM
N#C/C(=C\c1ccc(O)cc1O)C(N)=O	> 100 µM
CN(NC(=O)c1cccs1)C1=NCCN1	> 100 µM
CC(C)N(C[C@H]1O[C@@H](n2cnc3c(N)ncnc32)[C@H](O)[C@@H]1O)C1CC(CCc2nc3ccc(C(C)(C)C)cc3[nH]2)C1 (some centres undefined)	> 100 µM
ClC1=C(Cl)C(Cl)=C(Cl)C1=Cc1ccc(Cl)cc1	2.05 µM
O=C(O)Cc1ccc2c(c1O)C(=O)c1c(ccc(CC(=O)O)c1O)C2=O	> 100 µM
COc1ccc2c(c1)c1c3c(ccc4ncn2c43)N(CCN(C)C)CCN=1	2.83 µM
Cc1cc(Br)cc(C)c1NC(=O)C(=O)C1C(=O)C(CC2C(=O)c3ccccc3C2=O)C(=O)CC1(C)C (centres undefined)	> 100 µM
C=C1CC(C/C=C(\C)CC2CC(=C)C(=O)O2)OC1=O (centres undefined)	> 100 µM

----------
tested on: UACC-257 melanoma; test: NCI tumour cell line growth inhibition, 48 h; in the data active means GI50 below about 0.43 µM; inactive means the rest
Outcome codes: 1 (yes) for active, 0 (no) for inactive

Compound	Class
O=C(Nc1ccc(S(=O)(=O)NC2CCCCCC2)cc1)C(c1ccccc1)S(=O)(=O)c1ccc(F)cc1 (configuration not stated)	0 (no)
CCc1ccccc1-n1c(N)c(C#N)c(-c2ccc(OC)c(OC)c2)c(C#N)c1=O	0 (no)
N#CC(C#N)=Cc1ccc(-c2ccc(-c3nc4ccccc4o3)cc2)o1	0 (no)
N#Cc1c(Oc2ccc(F)c(NC(=O)Cc3cccc(C(F)(F)F)c3)c2)ccc2nc(NC(=O)C3CC3)sc12	1 (yes)
CN1CCN(c2ccc3nc4c(nc3c2C(F)(F)F)C(=O)c2ncccc2C4=O)CC1	0 (no)
CON	0 (no)
C/C(=N\Nc1cccc(Cl)n1)c1ccccn1	0 (no)
